Reference source for all entries: the supplement of paper PMC10567573

Provide the recorded protein stability index for the entries that follow.
B1: DYRK1B (parent)
chain: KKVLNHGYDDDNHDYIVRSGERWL

- Variants of: B1
- assay-procedure: protein stability index of a GFP-peptide fusion (GPS, HEK-293T) (PSI 1-6); higher = more stable;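 note: lentivirally expressed fusions sorted by FACS into six bins by GFP to DsRed ratio, PSI derived from sequencing read proportions per bin multiplied by bin number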
- details: c terminus: a fixed tail appended
Output spec: single numeric token, no unit.

Which protein stability index is listed for `D11C` ? 2.55

Would you mind telling me what protein stability index value was observed for `H6W` ? 2.01

# input variant: `S19W` ; wanted: its protein stability index 2.21

Recorded protein stability index for `I16W` , please? 2.71

Please look up its protein stability index: `L4G` 3.87

Look up protein stability index: `D14Q` 2.35

Give its protein stability index value. Item: `N12Y` 2.17

Requested field: protein stability index. Item: `W23F` 3.62

Quick one: protein stability index of `Y8A` ? 3.82

// lookup protein stability index for `H13N` 3.07

Given `G20D` , state its recorded protein stability index. 3.22

Dear colleague, I am looking for the recorded protein stability index of the following variant: `Y8Q` 3.77

Fill blank: measured protein stability index of the variant `S19A` is ____. 3.57

Report protein stability index for `R18D` please. 3.78

Entry under review: `N5K` . Reported protein stability index? 2.97

Need protein stability index of `R18Q` , thanks. 3.78

May I ask what protein stability index has been recorded for `V3G` ? 3.33

I would be grateful if you could share the reported protein stability index for `R18C` . 2.82

What value of measured protein stability index is listed for `I16C` ? 3.48

Recorded protein stability index for `K2V` , please? 2.86

Recorded protein stability index for `I16Y` , please? 3.89

Which measured protein stability index value corresponds to `I16G` ? 3.71
